assay details: Cytotoxicity against dog DH82 cells assessed as decrease in cell viability after 48 hrs by MTT assay
Assay type: toxicity, cell-based, Canis lupus familiaris
study conditions: read-out: LD50
quantity measured: CC50 at 48 h (µM)
Answers are plain numbers, in µM.

smiles text | CC50 at 48 h, µM
CC1(C)CC[C@]2(C(=O)OCc3c(Cl)cccc3Cl)CC[C@]3(C)C(=CC[C@@H]4[C@@]5(C)CC[C@H](O)[C@@](C)(CO)[C@@H]5CC[C@]43C)[C@@H]2C1 | 202

Look up CC50 at 48 h for this compound: COC(=O)CNC(=O)[C@]12CCC(C)(C)C[C@H]1C1=CC[C@@H]3[C@@]4(C)CC[C@H](O)[C@@](C)(CO)[C@@H]4CC[C@@]3(C)[C@]1(C)CC2
32.5
